Below: a set of entries, each annotated with reported abundance fitness.
B1: Intersectin-1, residues 909 to 971; numbered along this chain, Q15811 (parent)
chain: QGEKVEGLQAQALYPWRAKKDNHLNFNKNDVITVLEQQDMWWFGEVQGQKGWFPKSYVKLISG

# Variants of: B1
# assay: abundance fitness (aPCA) (normalised: wild type 0, dead -1); higher = more abundant; growth selection in yeast, the domain comes from the species named
# protocol conditions: Homo sapiens
// no unit, no text: just the number

These solved cases illustrate the format of a correct answer.
D30N    -0.396
W41V    -0.319
E45M    -0.18
K4F    -0.193
W52K    -0.375

INPUT: So what's the measured abundance fitness for this one? Y14L
OUTPUT: 0.009

INPUT: So what's the measured abundance fitness for this one? P54S
OUTPUT: -0.88

INPUT: So what's the measured abundance fitness for this one? Y57M
OUTPUT: 0.008

INPUT: So what's the measured abundance fitness for this one? F43A
OUTPUT: -0.696

INPUT: So what's the measured abundance fitness for this one? K55G
OUTPUT: -0.165
